System: alpha-2-receptor
ASSAY_SUMMARY: radioligand binding, [3H]-rauwolscine, rat cerebral cortices
CONDITION_DESCRIPTION: ratio Ki alpha-1/Ki alpha-2
Counter-ions that a name gives are not always drawn.
Reported alpha-2-Selectivity Ki alpha-1/Ki alpha-2 by item:

A selection of reference data follows.
>>> assay_value("CCN(CCc1cccc(Cl)c1)CC1CCOc2cc(OC)ccc21 (stereo not shown) [Example 6, hydrochloride]")
33
>>> assay_value("COc1ccc2c(c1OC)SCCC2CN(C)CCc1cccs1 (stereo not shown) [Example 13, hydrochloride]")
32
>>> assay_value("COc1ccc2c(c1)OCCC2CN(C)CCc1cccc(Cl)c1 (stereo not shown) [Example 4, hydrochloride]")
11
>>> assay_value("COc1ccc2c(c1)OCCC2CN(C)CCc1cccs1 (stereo not shown) [Example 7, hydrochloride]")
59

**Q:** State the recorded alpha-2-Selectivity Ki alpha-1/Ki alpha-2 for this entry: COc1ccc2c(c1OC)OCCC2CN(C)CCc1cccs1 (stereo not shown) [Example 26, hydrochloride]
**A:** 1724

**Q:** State the recorded alpha-2-Selectivity Ki alpha-1/Ki alpha-2 for this entry: COc1ccc2c(c1OC)OCCC2CN(C)CCc1cccc(F)c1 (stereo not shown) [Example 25, hydrochloride]
**A:** 183

**Q:** State the recorded alpha-2-Selectivity Ki alpha-1/Ki alpha-2 for this entry: CCN(CCc1cccs1)CC1CCOc2c1ccc(OC)c2C (stereo not shown) [Example 28, hydrochloride]
**A:** 29
